Each item that follows carries a reported MIC.
system: C. krusei; experiment: Antifungal Activity Assay (broth microtiter MIC), C. krusei; type: cell-based, Candida krusei; settings: Pichia kudriavzevii, ATCC6258, 48 h, Table 3b (additional results); ATCC 6258; 3 replicates; MIC recorded at 48 h; read-out: MIC, C. krusei ATCC 6258

Known MIC results, listed for orientation:
| smiles entry | MIC |
| --- | --- |
| COc1ccc(F)cc1[C@H](Cn1c(=O)n([C@H](C)C(N)=O)c(=O)c2c(C)c(-n3nccn3)sc21)OCC(C)(C)C#N | > 4.01 µg/mL |
| COc1ccc(F)cc1[C@H](Cn1c(=O)n([C@@H](C)C(=O)N(C)C(C)C)c(=O)c2c(C)c(-n3nccn3)sc21)OCCO | 1.01 to 2 µg/mL |
| COCCOc1ccc(F)cc1[C@H](Cn1c(=O)n(C(C)(C)C(=O)NC(C)C)c(=O)c2c(C)c(-n3nccn3)sc21)OCCOC | 1.01 to 2 µg/mL |

Param item = COc1ccc(F)cc1[C@H](Cn1c(=O)n(C(C)(C)C(=O)N2CCCC2)c(=O)c2c(C)c(-n3nccn3)sc21)OCCN(C)C ; retrieve measured MIC.
2.01 to 4 µg/mL

Param item = COc1ccc(F)cc1[C@@H](O)Cn1c(=O)n([C@@H](C)C(=O)N2CC=CC2)c(=O)c2c(C)c(-n3nccn3)sc21 ; retrieve measured MIC.
1.01 to 2 µg/mL
